# Format: in vivo, BALB/c mice
# stated.conditions: mouse, in vivo, iv, Ex vivo organ biodistribution, Lungs
Starred links: 1 amine or outer side, 2 acyl side, 3 side chain; linkers in the order of their positions; H or OH if unused. Non-standard residues stand in square brackets, D forms with d. Residues, ends and D or L forms follow the SMILES beside them. *: point of attachment. DOTA = O=C(O)CN1CCN(CC(=O)O)CCN(CC(=O)*)CCN(CC(=O)O)CC1; d(γGlu) = O=C(O)[C@@H](CCC(=O)[*:2])N[*:1]
measured.metric: tissue uptake at 1 h (%ID/g)
Quick note: give the figure in %ID/g, leave out the unit.

query: Return tissue uptake at 1 h for the following compound: C[C@H](N)C(=O)N[C@H](CCC(=O)N[C@@H](CCCCNC(=O)CN1CCN(CC(=O)O)CCN(CC(=O)O)CCN(CC(=O)O)CC1)C(=O)O)C(=O)O [[^68Ga]Ga-DOTA-AeK, metal not drawn] (H-Ala-[d(γGlu)]-Lys(DOTA)-OH)
result: 1

====

# Type: in vivo, BALB/c mice
# stated.conditions: mouse, in vivo, iv, Ex vivo organ biodistribution, Pancreas
Starred links: 1 amine or outer side, 2 acyl side, 3 side chain; linkers in the order of their positions; H or OH if unused. Non-standard residues stand in square brackets, D forms with d. Residues, ends and D or L forms follow the SMILES beside them. *: point of attachment. DOTA = O=C(O)CN1CCN(CC(=O)O)CCN(CC(=O)*)CCN(CC(=O)O)CC1; d(γGlu) = O=C(O)[C@@H](CCC(=O)[*:2])N[*:1]
measured.metric: tissue uptake at 1 h
Answer format: value, then unit.

query: Return tissue uptake at 1 h for the following compound: C[C@H](N)C(=O)N[C@H](CCC(=O)N[C@@H](CCCCNC(=O)CN1CCN(CC(=O)O)CCN(CC(=O)O)CCN(CC(=O)O)CC1)C(=O)O)C(=O)O [[^68Ga]Ga-DOTA-AeK, metal not drawn] (H-Ala-[d(γGlu)]-Lys(DOTA)-OH)
result: 0.6 %ID/g

====

# Type: in vivo, BALB/c mice
# stated.conditions: mouse, in vivo, iv, Ex vivo organ biodistribution, Thyroid
Starred links: 1 amine or outer side, 2 acyl side, 3 side chain; linkers in the order of their positions; H or OH if unused. Non-standard residues stand in square brackets, D forms with d. Residues, ends and D or L forms follow the SMILES beside them. *: point of attachment. DOTA = O=C(O)CN1CCN(CC(=O)O)CCN(CC(=O)*)CCN(CC(=O)O)CC1; d(γGlu) = O=C(O)[C@@H](CCC(=O)[*:2])N[*:1]
measured.metric: tissue uptake at 1 h (%ID/g)
Quick note: give the figure in %ID/g, leave out the unit.

query: Return tissue uptake at 1 h for the following compound: C[C@H](N)C(=O)N[C@H](CCC(=O)N[C@@H](CCCCNC(=O)CN1CCN(CC(=O)O)CCN(CC(=O)O)CCN(CC(=O)O)CC1)C(=O)O)C(=O)O [[^68Ga]Ga-DOTA-AeK, metal not drawn] (H-Ala-[d(γGlu)]-Lys(DOTA)-OH)
result: 1

====

# Type: in vivo, BALB/c mice
# stated.conditions: mouse, in vivo, iv, Ex vivo organ biodistribution, Brain
Starred links: 1 amine or outer side, 2 acyl side, 3 side chain; linkers in the order of their positions; H or OH if unused. Non-standard residues stand in square brackets, D forms with d. Residues, ends and D or L forms follow the SMILES beside them. *: point of attachment. DOTA = O=C(O)CN1CCN(CC(=O)O)CCN(CC(=O)*)CCN(CC(=O)O)CC1; d(γGlu) = O=C(O)[C@@H](CCC(=O)[*:2])N[*:1]
measured.metric: tissue uptake at 1 h (%ID/g)
Quick note: give the figure in %ID/g, leave out the unit.

query: Return tissue uptake at 1 h for the following compound: C[C@H](N)C(=O)N[C@H](CCC(=O)N[C@@H](CCCCNC(=O)CN1CCN(CC(=O)O)CCN(CC(=O)O)CCN(CC(=O)O)CC1)C(=O)O)C(=O)O [[^68Ga]Ga-DOTA-AeK, metal not drawn] (H-Ala-[d(γGlu)]-Lys(DOTA)-OH)
result: 0.1
